assayed_target: PTPN3, P26045
Sequence (P26045 505-587): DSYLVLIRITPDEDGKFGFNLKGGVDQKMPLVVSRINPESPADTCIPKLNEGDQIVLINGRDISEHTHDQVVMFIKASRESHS
experimental_details: holdup assay
Parameters: key: below the threshold = too weak to quantify, mostly under pKd 3.1 to 4
condition_context: plain residues with an end cap or a label only (N-terminal biotin on a linker: ado-ado)
Below, each entry is listed alongside its reported pKd.
API note: the answer field is a bare number with no unit suffix.

The cases that follow already have their pKd on record.
TPPAAKKSRI [BAZ1A, Q9NRL2]
3.93
LRSPRTPSEV [OR10G3, Q8NGC4]
4.26

Lookup result for SAKVRTVTSV [RASL11B, Q9BPW5] ; measured pKd: 4.6
